test: qHTS profiling for inhibitors of Plasmodium falciparum proliferation (AID 504749);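 also: 0% = DMSO vehicle and full inhibition = artemisinin control; nearly all actives have a fitted effect of over 60% in size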; conditions: P. falciparum in erythrocytes, SYBR Green DNA, 72 h; at 12.8 µM (top of the series); parasite line B
Inconclusive results are not listed. Activity calls are given as the source filed them. Calls follow the shape of the dose curve; as a rule, active = well fitted inhibition curve with a large enough effect; inconclusive = small, poorly fitted or top-dose-only effect; inactive = flat fitted curve, though single readings scatter.
Reported Metric: activity, negative = inhibition

Reference set, count: 5
[[record]]
structure_notation = "Nc1cc(C(Cl)=C(Cl)Cl)c(S(N)(=O)=O)cc1S(N)(=O)=O"
recorded_measurement = "1.59% (inactive)"

[[record]]
structure_notation = "N=C(N=C(N)N)N1CCOCC1"
recorded_measurement = "11.1% (inactive)"

[[record]]
structure_notation = "CCOc1cc(CC(=O)N[C@@H](CC(C)C)c2ccccc2N2CCCCC2)ccc1C(=O)O"
recorded_measurement = "10.7% (inactive)"

[[record]]
structure_notation = "CCCCc1ccc2nc(NC(=O)OC)[nH]c2c1"
recorded_measurement = "6.2% (inactive)"

[[record]]
structure_notation = "COc1cc(OC)c(C(=O)CCCN2CCCC2)c(OC)c1"
recorded_measurement = "11% (inactive)"


Identify activity, negative = inhibition associated with the compound Oc1ccc(OCc2ccccc2)cc1
-19.8% (inactive)

Identify activity, negative = inhibition associated with the compound COc1ccc2cc([C@H](C)C(=O)O)ccc2c1
-0.339% (inactive)

* * *

assay: qHTS of pediatric cancer cell lines to identify multiple opportunities for drug repurposing: Primary screen for TC32 cells (AID 1347089); conditions: TC32 Ewing sarcoma viability, CellTiter-Glo luminescence, 48 h; series mostly up to 45.8 µM; also: nearly all actives have a fitted effect of over 60% in size
Inconclusive results are not listed. Active and inactive are the calls of the source. Calls come from the whole dose curve; as a rule, active = well fitted cell-killing curve with a large enough effect; inconclusive = small, poorly fitted or top-dose-only effect; inactive = flat fitted curve, though single readings scatter.
Outcome field: choose from active, inactive

[[record]]
compound = "CCCc1cc(=O)[nH]c(=S)[nH]1"
assigned_category = "inactive"

[[record]]
compound = "Nc1cccc2c1CN(C1CCC(=O)NC1=O)C2=O (centres undefined)"
assigned_category = "inactive"


Call for entry Oc1ccc2ccccc2c1SSc1c(O)ccc2ccccc12 :
inactive

Call for entry CN(C)c1ccc(O)c2c1C[C@H]1C[C@H]3[C@H](N(C)C)C(=O)C(C(N)=O)=C(O)[C@@]3(O)C(=O)C1=C2O :
inactive

Call for entry CNC[C@@H](O)[C@@H](O)[C@H](O)[C@H](O)CO :
inactive

Call for entry CC(=O)O[C@H]1C(=O)[C@@]2(C)C([C@H](OC(=O)c3ccccc3)[C@]3(O)C[C@H](OC(=O)[C@H](O)[C@@H](NC(=O)c4ccccc4)c4ccccc4)C(C)=C1C3(C)C)[C@]1(OC(C)=O)CO[C@@H]1C[C@@H]2O (some centres undefined) :
active

Call for entry COC(=O)N[C@H](C(=O)N[C@@H](Cc1ccccc1)[C@@H](O)CN(Cc1ccc(-c2ccccn2)cc1)NC(=O)[C@@H](NC(=O)OC)C(C)(C)C)C(C)(C)C :
inactive

Call for entry Nc1nc(OCc2ccccc2)c2[nH]cnc2n1 :
inactive

Call for entry CCOC(=O)C1=C(O)C(=O)N(Cc2ccccc2)C1 :
inactive

* * *

The entries below are paired with their reported Z-AUC.
assay: qHTS drug screen for cell cycle checkpoint inhibitors in PARPi-resistant BRCA-mutant ovarian cancer cell lines. (AID 1963452); settings: PEO1/OlaR viability, CellTiter-Glo luminescence, 96 h; measured here: PEO4 Z-AUC; stronger effect = lower value
Give the value as a plain number.

Reference set, count: 10
[[record]]
compound = "COCCCN1CCC(NC(=O)c2cc(Cl)c(N)c3c2OCC3)CC1"
recorded_measurement = 1.58

[[record]]
compound = "Nc1cc(C(Cl)=C(Cl)Cl)c(S(N)(=O)=O)cc1S(N)(=O)=O"
recorded_measurement = 1.34

[[record]]
compound = "Cc1cc(Cl)ccc1OCCCC(=O)NO"
recorded_measurement = 0.182

[[record]]
compound = "O=C(NCC1CCCCN1)c1cc(OCC(F)(F)F)ccc1OCC(F)(F)F (stereo unspecified)"
recorded_measurement = -1.07

[[record]]
compound = "C[C@@H](N)C1CCC(C(=O)Nc2ccncc2)CC1 (stereo partly specified)"
recorded_measurement = 0.552

[[record]]
compound = "Cc1nc(Nc2ncc(C(=O)Nc3c(C)cccc3Cl)s2)cc(N2CCN(CCO)CC2)n1"
recorded_measurement = -0.444

[[record]]
compound = "CC(=O)O[C@H]1C(=O)[C@@]2(C)C([C@H](OC(=O)c3ccccc3)[C@]3(O)C[C@H](OC(=O)[C@H](O)[C@@H](NC(=O)c4ccccc4)c4ccccc4)C(C)=C1C3(C)C)[C@]1(OC(C)=O)CO[C@@H]1C[C@@H]2O (stereo partly specified)"
recorded_measurement = -3.15

[[record]]
compound = "COc1ccccc1N1CCN(CCN(C(=O)C2CCCCC2)c2ccccn2)CC1"
recorded_measurement = 0.876

[[record]]
compound = "Cc1cc(C2CCCCC2)n(O)c(=O)c1"
recorded_measurement = -0.0703

[[record]]
compound = "Cc1ccc(C(=O)c2cc(O)c(O)c([N+](=O)[O-])c2)cc1"
recorded_measurement = -0.817


The record that follows has no Z-AUC shown yet.
Identify Z-AUC associated with the compound Cc1cc2cc3c(C)cc(=O)oc3c(C)c2o1
0.841

* * *

experiment: qHTS of pediatric cancer cell lines to identify multiple opportunities for drug repurposing: Primary screen for LAN-5 cells (AID 1347100); settings: LAN-5 neuroblastoma viability, CellTiter-Glo luminescence, 48 h; series mostly up to 46 µM; also: potency is read from the fitted curve at half-maximal effect
Results filed as inconclusive are left out. Calls of active or inactive are those of the source. Calls follow the shape of the dose curve; as a rule, active = well fitted cell-killing curve with a large enough effect; inconclusive = small, poorly fitted or top-dose-only effect; inactive = no such curve, though single readings can be large or run the other way.
Reported Metric: Potency

Reference set, count: 10
[[record]]
compound = "CC1(C)CCC(C)(C)c2cc(NC(=O)c3ccc(C(=O)O)cc3)ccc21"
recorded_measurement = "inactive"

[[record]]
compound = "COc1cc(C(C)=O)ccc1OCCCN1CCC(c2noc3cc(F)ccc23)CC1"
recorded_measurement = "inactive"

[[record]]
compound = "Cc1ccc(C)c(OCCCC(C)(C)C(=O)O)c1"
recorded_measurement = "inactive"

[[record]]
compound = "CCCS(=O)c1ccc2nc(NC(=O)OC)[nH]c2c1 (stereo unspecified)"
recorded_measurement = "16.8 µM (active)"

[[record]]
compound = "CN1C(C(=O)Nc2ccccn2)=C(O)c2sccc2S1(=O)=O"
recorded_measurement = "inactive"

[[record]]
compound = "C[C@@H](c1ncncc1F)[C@](O)(Cn1cncn1)c1ccc(F)cc1F"
recorded_measurement = "inactive"

[[record]]
compound = "N[C@@H](Cc1cc(I)c(Oc2cc(I)c(O)c(I)c2)c(I)c1)C(=O)O"
recorded_measurement = "inactive"

[[record]]
compound = "Clc1ccc2c(N3CCN(CCCN4CCN(c5ccnc6cc(Cl)ccc56)CC4)CC3)ccnc2c1"
recorded_measurement = "inactive"

[[record]]
compound = "N=C(N=C(N)N)N1CCOCC1"
recorded_measurement = "inactive"

[[record]]
compound = "Cc1ncc([N+](=O)[O-])n1CC(C)O (stereo unspecified)"
recorded_measurement = "inactive"


Identify Potency associated with the compound O=C(O)c1cccnc1Nc1cccc(C(F)(F)F)c1
inactive

Identify Potency associated with the compound COc1ccc(C2(C#N)CCC(C(=O)O)CC2)cc1OC1CCCC1 (stereo unspecified)
inactive

Identify Potency associated with the compound CC(C)[C@H](N)C(=O)OCCOCn1cnc2c(=O)[nH]c(N)nc21
inactive

Identify Potency associated with the compound CN(C)c1ccc2nc3ccc(=[N+](C)C)cc-3sc2c1
1.68 µM (active)

Identify Potency associated with the compound CCC1=C(C)CN(C(=O)NCCc2ccc(S(=O)(=O)NC(=O)NC3CCC(C)CC3)cc2)C1=O (stereo unspecified)
inactive

Identify Potency associated with the compound CC(C)Oc1ccc2c(=O)c(-c3ccccc3)coc2c1
inactive

Identify Potency associated with the compound O=c1cc(N2CCOCC2)oc2c(-c3ccccc3)cccc12
inactive

* * *

assay: qHTS of pediatric cancer cell lines to identify multiple opportunities for drug repurposing: Primary screen for Rh18 cells (AID 1347102); conditions: Rh18 rhabdomyosarcoma viability, CellTiter-Glo luminescence, 48 h; series mostly up to 46 µM; also: nearly all actives have a fitted effect of over 65% in size
Inconclusive results are not listed. Calls of active or inactive are those of the source. The call rests on the fitted dose curve; in most records, active means well fitted cell-killing curve with a large enough effect; inconclusive means small, poorly fitted or top-dose-only effect; inactive means flat fitted curve, though single readings scatter.
Outcome field: choose from t for active, f for inactive

Study these solved cases before continuing.
[[record]]
compound = "O=C(NCC1CCCCN1)c1cc(OCC(F)(F)F)ccc1OCC(F)(F)F (stereo unspecified)"
assigned_category = "f"

[[record]]
compound = "Clc1ccc(C(Cn2ccnc2)OCc2ccc(Sc3ccccc3)cc2)c(Cl)c1 (stereo unspecified)"
assigned_category = "f"

[[record]]
compound = "OC(CN1CCN(c2cccc(Cl)c2)CC1)C(c1ccccc1)c1ccccc1 (stereo unspecified)"
assigned_category = "f"

[[record]]
compound = "CCCOc1ccc2nc(NC(=O)OC)[nH]c2c1"
assigned_category = "f"

[[record]]
compound = "Clc1ccc(C(Cn2ccnc2)OCc2ccsc2Cl)c(Cl)c1 (stereo unspecified)"
assigned_category = "t"

[[record]]
compound = "Nc1nc(Cl)nc2c1ncn2[C@H]1C[C@H](O)[C@@H](CO)O1"
assigned_category = "f"

[[record]]
compound = "CC1=C(C)C(=O)C(C(CCCCCC(=O)O)c2ccccc2)=C(C)C1=O (stereo unspecified)"
assigned_category = "f"

[[record]]
compound = "Cc1nc2n(c(=O)c1CCN1CCC(c3noc4cc(F)ccc34)CC1)CCCC2"
assigned_category = "f"

[[record]]
compound = "COCCCN1CCC(NC(=O)c2cc(Cl)c(N)c3c2OCC3)CC1"
assigned_category = "f"

[[record]]
compound = "CCCCc1ccc2nc(NC(=O)OC)[nH]c2c1"
assigned_category = "f"


Lab note: next compound to report on.
Call for entry Cc1c(OCC(F)(F)F)ccnc1CS(=O)c1nc2ccccc2[nH]1 (stereo unspecified) :
f

Values were extracted from PubChem BioAssay (NCATS).
